meta.source: PubChem BioAssay AID1996

- Experimental Parameters: buffer; pH 7.4; 200.0 µM
Item-by-item account of solubility kinetic

[[record]]
compound = "CCCc1cc(NCCCN(C)C)n2c(nc3ccccc32)c1C#N"
measurement = "40.5 µg/mL"

[[record]]
compound = "CCOc1ccc(OCCC(=O)OCC(=O)NCc2ccccc2)cc1"
measurement = "46.3 µg/mL"

[[record]]
compound = "O=C1c2ccccc2C(O)(c2ccccc2)N1CCc1ccccc1 (stereo unspecified)"
measurement = "1.3 µg/mL"

[[record]]
compound = "Cc1cccc(N2N=C(C(=O)N3Cc4ccccc4CC3C(N)=O)CCC2=O)c1 (stereo unspecified)"
measurement = "> 58.6 µg/mL"

[[record]]
compound = "FC(F)(F)c1ccc(NCc2ccccn2)nc1"
measurement = "> 38 µg/mL"


Query: Using the record for CN(C(=O)CSc1nnc2n1CCCCC2)C1(C#N)CCCCC1 , report its solubility kinetic.
Response: > 52.1 µg/mL

====

- Experimental Parameters: buffer; pH 7.4; 200.0 µM
Value Type: solubility kinetic (µg/mL)
The reply should contain only the number, in µg/mL.

[[record]]
compound = "C=CCn1c(SCC(N)=O)nc2nc3c(cc2c1=O)COC(C)(C)C3"
measurement = 46.6

[[record]]
compound = "CCn1ccnc1CN1CCCC(C(=O)c2cc(C)c(OC)c(C)c2)C1 (stereo unspecified)"
measurement = 47.6

[[record]]
compound = "CCOc1ccc(NC(=O)CNc2cccc(S(=O)(=O)N3CCCCCC3)c2)cc1OCC"
measurement = 18.8

[[record]]
compound = "CCCN1C(=O)c2ccccc2NC1c1ccc(Cl)c(Cl)c1 (stereo unspecified)"
measurement = 11.9

[[record]]
compound = "Cc1csc(CN(C)C(=O)C2CCC(=O)N(CCN(C)C)C2)n1 (stereo unspecified)"
measurement = 32.9

[[record]]
compound = "COC(=O)C(Cc1ccc(O)cc1)NC(=O)NC12CC3CC(CC(C3)C1)C2 (stereo unspecified)"
measurement = 27.5


Please examine the following record next.
Query: Using the record for Nc1c2c(nc3cccc(Cl)c13)N(c1ccccc1)CC2 , report its solubility kinetic.
Response: 0.9

====

- Experimental Parameters: buffer; pH 7.4; 200.0 µM
Value Type: solubility kinetic (µg/mL)
The reply should contain only the number, in µg/mL.

Solved entries:
[[record]]
chemical_smiles = "Fc1cccc(CNC2CCN(CCc3ccccc3)CC2)c1"
measurement = 33.7

[[record]]
chemical_smiles = "Cc1ccc(/C=C/S(=O)(=O)NCCC(=O)NCc2ccccc2F)cc1"
measurement = 9

[[record]]
chemical_smiles = "Cc1c(C(=O)O)sc2nc(/C=C/c3cccc(O)c3)[nH]c(=O)c12"
measurement = 35.5

[[record]]
chemical_smiles = "CN(C)c1cccc(C(=O)NCCCn2ccc3ccccc32)c1"
measurement = 23


Please examine the following record next.
Query: Using the record for Cc1ccc(/C=[N+](\[O-])c2ccccc2C)o1 , report its solubility kinetic.
Response: 22.2

====

Item-by-item account of solubility kinetic
- Experimental Parameters: buffer; pH 7.4; 200.0 µM
The reply should contain only the number, in µg/mL.

Solved entries:
[[record]]
compound = "O=C(O)CC1(CC(=O)NCc2csc(-c3cccs3)n2)CCCCC1"
result_unit = "µg/mL"
measurement = 44.9

[[record]]
compound = "CN(CC(=O)Nc1cccc(C(F)(F)F)c1)Cc1ccccc1"
result_unit = "µg/mL"
measurement = 20.8

[[record]]
compound = "O=C(Nc1ccccc1)C1CCCN1C(=O)NCc1ccccc1 (stereo not drawn)"
result_unit = "µg/mL"
measurement = 22

[[record]]
compound = "C#Cc1cccc(C(=O)N2CCCC(Nc3cccc(F)c3)C2)c1 (stereo not drawn)"
result_unit = "µg/mL"
measurement = 39.5

[[record]]
compound = "N#Cc1c(/N=C/c2cccnc2)sc2c1CCCC2"
result_unit = "µg/mL"
measurement = 7.5

[[record]]
compound = "Cc1nc2ccc([N+](=O)[O-])cc2c(=O)n1Cc1cccc(F)c1"
result_unit = "µg/mL"
measurement = 9.1


Query: Using the record for COc1cc(SC)ccc1C(=O)OCC(=O)NC1CCCCC1 , report its solubility kinetic.
Response: 2.2

Query: Using the record for COc1ccc(OC)c(NC(=O)N2CCCc3ccccc32)c1 , report its solubility kinetic.
Response: 1.7

Query: Using the record for Cc1ncsc1C(=O)Nc1cccc(C(F)(F)F)c1 , report its solubility kinetic.
Response: 40.7

Query: Using the record for CCOc1ccc(-n2c([O-])cc(=O)[nH]c2=O)cc1.[NH4+] , report its solubility kinetic.
Response: 35.2

Query: Using the record for COc1ccc(N2CCOCC2)c(NC(=O)c2ccc3c(c2)OCO3)c1 , report its solubility kinetic.
Response: 26.2

Query: Using the record for Cc1ccc(-c2ccc(CCC(=O)O)n2-c2cccc(C(=O)O)c2)cc1 , report its solubility kinetic.
Response: 50.4

Query: Using the record for COc1cc(C)ccc1OC(C)C(=O)Nc1ccc(N2CCCCC2)cc1 (stereo not drawn) , report its solubility kinetic.
Response: 2.7

Query: Using the record for CCCN1CCc2c(sc3nc(SC)n(-c4ccccc4)c(=O)c23)C1 , report its solubility kinetic.
Response: 33.9

Query: Using the record for CCOC(=O)C1=C(O)/C(=C\c2ccc(O)c(OCC)c2)N=C1C , report its solubility kinetic.
Response: 36.1

Query: Using the record for O=C(Nc1cccc([N+](=O)[O-])c1)Nc1cnccn1 , report its solubility kinetic.
Response: 1.2

Query: Using the record for CCOC(=O)C(c1ccccc1)C(Nc1ccc(F)cc1)c1ccccn1 (stereo not drawn) , report its solubility kinetic.
Response: 11.9

Query: Using the record for CC(C)(C)c1ccc(OCCCCCCN2CCNCC2)cc1 , report its solubility kinetic.
Response: 31.9

====

- Experimental Parameters: buffer; pH 7.4; 200.0 µM
Value Type: solubility kinetic (µg/mL)
The reply should contain only the number, in µg/mL.

Query: Using the record for COC(=O)c1c(C)[nH]c(C(=O)/C=C/c2ccc(C)cc2)c1C , report its solubility kinetic.
Response: 1.7

Query: Using the record for CC(C)(C)NCc1ccc(OCc2cccs2)cc1.Cl , report its solubility kinetic.
Response: 36.8

Query: Using the record for CC(NC(=O)C1CC1)c1ccc(-c2ccccc2)cc1 (stereo unspecified) , report its solubility kinetic.
Response: 1.5

Query: Using the record for Cc1nc(NC(=O)C2CCCCC2C(=O)O)sc1C (stereo unspecified) , report its solubility kinetic.
Response: 40.5

====

- Experimental Parameters: buffer; pH 7.4; 200.0 µM
Value Type: solubility kinetic (µg/mL)
The reply should contain only the number, in µg/mL.

[[record]]
compound = "Cc1[nH]c2ccccc2c1C(=O)CSc1cccc[n+]1[O-]"
measurement = 40.8


Query: Using the record for O=C(NCCNc1ccccc1[N+](=O)[O-])c1cc(F)c(F)cc1Cl , report its solubility kinetic.
Response: 1.2

Query: Using the record for O=c1oc2ccccc2c(Nc2ccc(Cl)cc2)c1[N+](=O)[O-] , report its solubility kinetic.
Response: 0.9

Query: Using the record for COc1ccc(CN(C(=O)/C=C/c2ccco2)C2CCS(=O)(=O)C2)cc1 (stereo not given) , report its solubility kinetic.
Response: 44.7

Query: Using the record for O=C(COC(=O)c1cncc(Br)c1)NC1CCCCC1 , report its solubility kinetic.
Response: 46.6

Query: Using the record for CSc1ncc(Sc2ccccc2)c(C(=O)O)n1 , report its solubility kinetic.
Response: 38.4

Query: Using the record for COc1cc(NC(=O)COC(=O)c2[nH]c(C)c(C(C)=O)c2C)cc(OC)c1 , report its solubility kinetic.
Response: 4

Query: Using the record for CCCN(CCC)C(=O)Nc1cc(Cl)ccc1OC , report its solubility kinetic.
Response: 31.9

Query: Using the record for CCOC(=O)C1=C(Nc2ccc(OC)cc2)OCC1=O , report its solubility kinetic.
Response: 39.5

Query: Using the record for Cc1ccc2nc(SCC(=O)c3ccc(O)cc3O)[nH]c2c1 , report its solubility kinetic.
Response: 6.4

Query: Using the record for NS(=O)(=O)c1ccc(CCNC(=O)COC(=O)/C=C/c2cc(Br)ccc2F)cc1 , report its solubility kinetic.
Response: 30.2

Query: Using the record for CCOC(=O)/C(C#N)=C\c1ccc(OC)c(OC)c1 , report its solubility kinetic.
Response: 2.4

Query: Using the record for NC(=O)COC(=O)CCSc1ccc(Cl)cc1 , report its solubility kinetic.
Response: 30.2

Query: Using the record for O=C(Nc1cccc2ncccc12)c1ccccc1[N+](=O)[O-] , report its solubility kinetic.
Response: 36.6

Query: Using the record for CCc1ccc(OCC(=O)O/N=C(\N)c2ccncc2)cc1 , report its solubility kinetic.
Response: 7.1

Query: Using the record for Cc1ccc(NC(=S)Nc2cccc3ccccc23)cc1 , report its solubility kinetic.
Response: 1.5

Query: Using the record for CC(NC(=S)Nc1ccc(F)cc1)c1ccccc1 (stereo not given) , report its solubility kinetic.
Response: 27.7

Query: Using the record for CCCCCCCCNC1=CC(=O)CC(C)(C)C1 , report its solubility kinetic.
Response: 12.5
